# PROTOCOL NOTES: yeast display, Sf9 membrane polyspecificity reagent, FACS + sequencing; frameworks hold sequencing errors
RECORDED METRIC: polyreactivity (PSR sort gate)

- CONSTRUCT SEQUENCE: "QVQLVESGGGIVQAGGSLRLSCAASGLIFYNYAMGWYRQAPGKERELVAAITSGGSTYYADSVKGRFTISRDNAKNTVYLQMNSLKPEDTAVYYCAADLTYTVPFDYWGQGTQVTVSS"
  RESULT: "high polyreactivity"
- CONSTRUCT SEQUENCE: "QVQLVESGGGLVQAGGSLRLSCAASGFTFSYYAMGWYRQAPGKERELVASISRSGNTYYADSVKGRFTISRDNAKNTVYLQMNSLKPEDTAVYYCAADQVYASTHVWGYDYWGQGTQVTVSS"
  RESULT: "high polyreactivity"
- CONSTRUCT SEQUENCE: "QVQLVESGGGLVQAGGSLRLSCAASGSIFVNNAMGWYRQAHGKERELVAAISGSGSSTHYAHSVKGRFTISRDNAKNTVYLQMNSLKPEDTAVYYCNRGRRDLDFNYWGQGTQVTVSS"
  RESULT: "low polyreactivity"
- CONSTRUCT SEQUENCE: "QVQLVESGGGLVQAGGSLRLSCAASGNIFRGYTMGWYRQAPGKERELVATITWNGVSTFYADSVKGRFTISRDNAKNTVYLQMNSLKPEDTAVYYCAAYYPSHDYSGFWSDTYEYWGQVTQVTVSS"
  RESULT: "low polyreactivity"
- CONSTRUCT SEQUENCE: "QVQLVESGGGLVQAGGSLRLSCAASGFTLDKYAMGWYRQAPGKERELVAAITWSGGSTYYADSVKGRFTISRDNAKNTVYLQMNSLKPEDTAVYYCNVLRYRLWGQGTQVTVSS"
  RESULT: "high polyreactivity"

I need polyreactivity (PSR sort gate) for every entry listed below, if you could help.
1. QVQLVESAGGLVQEGGSLRLSCAASGSTFPYYAMGWYRQAPGKERELVAAISQNGGSTYYADSVKGRFTISRDNAMNTVYLQMNRLKPEDTAVYYCNADGVGGEYRLSGYAYWGQGTQVTVSS
2. QVQLVESGGGLVQAGGSLRLSCAASGRIFKVYAMGWYRQAPGKERELVATISRGGSTYYADSVKGRFTISRDNAKNTVYLQMNSLKPEDTAVYYCAKQRERYYWFGAWSYDYWGQGTQLTVSS
3. QVQHVESGGGLVQAGGSLRLSCAASGSIFAHYTMGWYRQAPGKERELVAVISRSGARTYYADSVKGRFTISRDNAKNTVYLQMNSLKPEDTAVYYCAADRNLEEDYWGLGTQVTVSS
4. QVQLVESGGGLVQAGGSLRLSCAASGFTFNDYAMGWYRQAPGKERELVAAISKSGSRTYYADSVKGRFTISRDNAMNTVYLQMNSLKPEDTAVYYCNALPSYYGTYDYWGQGTQVTVSS
5. QVQLVESGGGLVQAGGSLRLSCAASGRTFVYYAMGRYRQAPGKERELVAAISGSGGSTYYADSVKGRFTISRDNAKNTVYLQMISLKPEDTAVYYCAAGPRGRYRYGYWGQGTQVTVSS
6. QVQLVESGGGLVQAGGSLRLSCAASGFTFGTYAMGWYRQAPGKERELVAAITSSGTITYYADSVKGRFTISRDNAKNTVYLQMNSLKPEDTAVYYCAARRFRRLRWGQGTQVTVSS

1. low polyreactivity
2. low polyreactivity
3. low polyreactivity
4. high polyreactivity
5. high polyreactivity
6. low polyreactivity

* * *

# PROTOCOL NOTES: yeast display, Sf9 membrane polyspecificity reagent, FACS + sequencing; frameworks hold sequencing errors
RECORDED METRIC: polyreactivity (PSR sort gate)

Solved cases (4 shown):
- CONSTRUCT SEQUENCE: "QVQLVESGGGLVQAGGSLRLSCAASGYTFHHNTMGWYRQAPGKERELVATISDGGSTNYADSVKGRFTISRDNAKNTVYLQMNSLKPEDTAVYYCAALYQQFQSALVPYFDVIEEDYWGQGTQVTVSS"
  polyreactivity (PSR sort gate): "low polyreactivity"
- CONSTRUCT SEQUENCE: "QVQLVESGGGLVQAGGSLRLSCAASGRTFDWYAMGLYRQAPGKERELVAAISWSGGSTYYADSVKGRFTISRDNAKNTVYLQMNSLKPEDTAVYYCATDSYTEQSWVAEGYSGQGTQVTVSS"
  polyreactivity (PSR sort gate): "low polyreactivity"
- CONSTRUCT SEQUENCE: "QVQLVESGGGLVQAGGSLRLSCAASGSIFGSYTMGWYRQAPGKERELVAAISLGGGSTYYADSVKGRFSISRDNAKNTVYLQMNSLKPEDTAVYYCAAGFTYPYDYWGQGTQVTVSS"
  polyreactivity (PSR sort gate): "low polyreactivity"
- CONSTRUCT SEQUENCE: "QVQIVESGGGLVQAGGSLRLSCAASGSIFVNNAMGWYRQAPGKVRELVARISFSGGSTYYADSVKGRFTISRDNAKNTVYLQMISLNPEDTAVYYCAKTVLRTESGWWIKFDYWGQVTQVTVSS"
  polyreactivity (PSR sort gate): "low polyreactivity"

Pending sequence:
For the sequence "QVQLVESGGGLVQAGGSLRLSCAASGSIFWSNAMGWYRQAPGKEREFVAAITWSGDNTYYADSVKGRFTISRDNAKNTVYLQMNSLKPEDTAVYYCAASGDYYWDEGDYWGQGTQVTVSS" , what polyreactivity (PSR sort gate) is on record?
low polyreactivity

* * *

# PROTOCOL NOTES: yeast display, Sf9 membrane polyspecificity reagent, FACS + sequencing; frameworks hold sequencing errors
RECORDED METRIC: polyreactivity (PSR sort gate)

- CONSTRUCT SEQUENCE: "QVQLVESGGGLVQAGGSLRLSCAASGFTFNANAMGWYRQAPGKERELVADISLSGGRTYYADSVKGRFTISRDNAKNTVYLQMNSLKPEDTAVYYCAASPDGSFRRFSRVVSGDYWGQGTQVTVSS"
  RESULT: "high polyreactivity"
- CONSTRUCT SEQUENCE: "QVQLVESGGGLVQAGGSLRLSCAASGSTFWEYAMGWYRQGPGTERELVAAISSSGGSTYYADSVKGRFTISRDNAKNTVYLQMNSLKPEDTAVYYCAARYSWRRAGYYYWGQGTQVTVSS"
  RESULT: "high polyreactivity"

* * *

# PROTOCOL NOTES: yeast display, Sf9 membrane polyspecificity reagent, FACS + sequencing; frameworks hold sequencing errors
RECORDED METRIC: polyreactivity (PSR sort gate)

- CONSTRUCT SEQUENCE: "EVQLVESGGGLVQTGGSLRLSCAASGYIYSRYRMGWYRQAPGKGREIVAAISGGSSTNYADSVKGRFTISRDNSNNTVYLQMNSLRAEDTAVYYCAAYKIDSDTRVYWGQGTQVTVSS"
  polyreactivity (PSR sort gate): "low polyreactivity"
- CONSTRUCT SEQUENCE: "QVQQVESGGGLVQAGGSLRLSWAASGRIFVINGMGWYRQAPGKERELVAGISSGGTTYADSVKGRFTISRDNAKNTVYLQMNSLKPEDTEVYYCAARGRYQPQFDYWGQGTQVTVSS"
  polyreactivity (PSR sort gate): "high polyreactivity"
- CONSTRUCT SEQUENCE: "QVQLVESGGGLVQAGGSLRLSCAASGFIFRRYAMGWYRQAPGKERELVAAISWRSGSTYYADSVKGRFTISRDNAKNTVYLQMNSLKPEDTAVYYCAAKDQATYQLNYWGQGTQVTVSS"
  polyreactivity (PSR sort gate): "high polyreactivity"
- CONSTRUCT SEQUENCE: "QVQLVESGGGLVQAGGTLRLSCAASGSIFYRYDMGWYRPAPGKERELVAAITWSGGSTYYADSVKGRFTISRDNAKNTVYLQMNSLKPEDTAVYYCNAPGDGYLYDHTYDYWGQGTQVTVSS"
  polyreactivity (PSR sort gate): "low polyreactivity"
- CONSTRUCT SEQUENCE: "QVQLVESGGGLVQAGGSLRLSCAASGFTFGRNAMGWYRQAPGKERELVAAISRGGSTYYADSVKGRFTISRDNAKNTVYLQMISLKPEDTAVYYCAAETFLKPQYFKKFGYWGQGTQVTVSS"
  polyreactivity (PSR sort gate): "high polyreactivity"

Fill in polyreactivity (PSR sort gate) for each of the 4 sequences listed.
1. QVQHVESGGGLVQAGGSLRLSCAASGYTFYFYAMGWYRQAPGKERELVAAITGGGTTSYADSVKGRFTISRDNAKNTVYLQMNSLKPEDTAVYYCNVLFADKSDYWGPGTQVTVSS
2. QVQLVESGGGLVQAGDSLRLSCGASGRTFYPYAMGWYRQAPGKERELVAAITWSGGSTYYADSVKGRFTISRDNAKNTVYLQMNSLKPEDTAVYFCNAAELTYDLYDYCGQGTQVTVSS
3. QVQLVESGGGLVQAGGSLRLSCAASGYIFLPNTMGWYRQAPGKERELVAVISKSGTSTYYADSVKGRFTISRDNAKNTVYLQMNSLKPEDTAVYYCNRVYRLTAYGYDYWGQGTQVTLSS
4. QVQLVESGGGLVQAGGSLRLSCAASGSTFRYYAMGWYRQAPGKERELVAGITRIGGRTYYADSVKGRFTISRDNAKNTVDLQMNSLKPEDTAVYYCAADYGGFLGYDYWGQGTQVTLSS

low polyreactivity
low polyreactivity
high polyreactivity
high polyreactivity

Below are some sequences; for each one, tell me its polyreactivity (PSR sort gate).
1. QVQLVESGGGLVQAGGSLRLSCAASGYTFRGYAMGWYRQAPGKEREFVAAMNWSDGSTYYADSVKGRFTISRDNPKNTVYLQMNSLKPEDTAVYYCNADQYYRVPDNYWGQGTQVTVSS
2. QVQLVESGGGLVQAGGSLRLSCAASGRTFGSKALAWYRPAPGKERELVAAITGGGSTYYADSVKGRFTISRDNAKNTVYLQMNSLKPEDTAVYYCAARGTSGWYRYGYWGQGTQVTVSS

low polyreactivity
high polyreactivity
